- Tested on: Plasmodium berghei
- test.description: Screen against P. berghei liver stage (PbLuc), transformed with Luciferase, at 2uM
- Type: functional, HepG2
- condition.description: tested at 2 uM
About 2,700 (4%) of roughly 68,000 compounds showed an effect of 50% or more. This excerpt belongs to a sample that is enriched for strong results.
I'd appreciate it if you could supply INHIBITION values for the items below.
One number for each entry, in %.

Example entries begin here.
| molecule | reading.unit | value.measured |
| --- | --- | --- |
| O=C(NC1CCCCNC1=O)c1cc2ccccc2[nH]c1=O (stereo unspecified) | % | -0.79 |
| Cc1cc(C(=O)NC2CCCCNC2=O)c(=O)[nH]c1C (stereo unspecified) | % | 52.08 |
| Cc1ccc(C(=O)NC2CCCCNC2=O)c(=O)[nH]1 (stereo unspecified) | % | -4.09 |
| COC(=O)CNC(=O)c1sccc1N(C)S(=O)(=O)c1ccc(Cl)cc1 | % | 3.38 |
| Cn1cc(N2C[C@@H]3CN(S(=O)(=O)C4CC4)C[C@@H]3C2=O)cn1 | % | 63.23 |
| Cc1ccsc1C(=O)NC1CCS(=O)(=O)c2ccccc21 (stereo unspecified) | % | -15.77 |
| COc1ccc(C[C@H]2CN(C(=O)c3cnoc3)CC[C@@H]2OC)cc1 | % | -36.05 |
| NCC(c1ccc(Cl)cc1)N1CCc2sccc2C1 (stereo unspecified) | % | -5.59 |

Report INHIBITION for every entry below.
1. COc1ccc(C[C@H]2CN(C(=O)c3cscn3)CC[C@@H]2OC)cc1
2. NC(=O)CN1CCCN(C(=O)c2ccc(SC(F)F)cc2)CC1
3. Cn1cc(N2C[C@@H]3CN(CC4CCOCC4)C[C@@H]3C2=O)cn1

-6.39
2.31
-1.69
